system-tested: T1, Ebola virus GP with a C-terminal polyhistidine tag (Sino Biologicals, Catalog #40442-V08B1) (Ebola virus, UniProt P87666 33-650)
T1 construct: also called EbolaGP.his; Ebola virus GP.his
test-details: SPR 25C, mAb captured
measured-parameter: Kd

H1H17162P (antibody, V domains shown) VH: EVQLVESGGGLVQPGGSLRLSCAASEFTFSSYAMSWVRQAPGKGLEWVSAISGSSGSTYYADSVKGRFTISRDNSKKTLYLQMNSLRVEDTAVYYCAKGGYPHSFDIWGHGTMVTVSS VL: DIQMTQSPSSLSASVGDRVTITCRASQSISSFLNWYQQKPGKAPKLLIYAASSLQSGVPSRFSGSGSGTDFTLTISSLQPEDFATYYCQQSYSSITFGQGTRLEIK    ≤ 0.46 nM

// query Give its Kd value. Item: H1H17196P (antibody, V domains shown) VH: EVQLVESGGGLVQPGGSLRLSCAASGFTFRSYDMHWVRQGSGKGLEWVSAIGTAGDTYYLGSVKGRFTISRENAKNSLYLQMNSLRAGDTAVYYCARAWFGDVFLDYWGQGTLVTVSS VL: EIVMTQSPATLSVSPGERATLSCRASQSVSSNLAWYQQKPGQAPRLLIYGASTRATGIPARFSGSGSGTEFTLTISSLQSEDFAGYYCQQYNNRLTFGGGTKVEIK
// result ≤ 0.391 nM
